Assay: Cytotoxicity against African green monkey Vero cells after 72 hrs by MTT assay
Format: cell-based
Conditions: chlorocebus sabaeus
Catalogue of CC50 at 72 h values
Use µM as the unit, but write only the number.

Some entries whose results are on file:
INPUT SMILES: COC(=O)c1c(C)nc(NNC(=O)c2cccc3c(=O)c4ccccc4[nH]c23)nc1-c1cccc(OC)c1
CC50 at 72 h [µM]: 95.1
--
INPUT SMILES: CCOC(=O)c1c(C)nc(NNC(=O)c2cccc3c(=O)c4ccccc4[nH]c23)nc1-c1ccccc1F
CC50 at 72 h [µM]: 61.3
--
INPUT SMILES: COC(=O)c1c(C)nc(NNC(=O)c2cccc3c(=O)c4ccccc4[nH]c23)nc1-c1ccc(F)cc1
CC50 at 72 h [µM]: 78.2
--
INPUT SMILES: CCOC(=O)c1c(C)nc(NNC(=O)c2cccc3c(=O)c4ccccc4[nH]c23)nc1-c1cccc(OC)c1
CC50 at 72 h [µM]: 64.1
--
INPUT SMILES: COC(=O)c1c(C)nc(NNC(=O)c2cccc3c(=O)c4ccccc4[nH]c23)nc1-c1ccc(OC)c(OC)c1
CC50 at 72 h [µM]: 85.7

response.value for CCOC(=O)c1c(C)nc(NNC(=O)c2cccc3c(=O)c4ccccc4[nH]c23)nc1CC(C)C (field: CC50 at 72 h) = 78.2

response.value for COC(=O)c1c(C)nc(NNC(=O)c2cccc3c(=O)c4ccccc4[nH]c23)nc1-c1ccc(OC)cc1 (field: CC50 at 72 h) = 86.2

response.value for CCOC(=O)c1c(C)nc(NNC(=O)c2cccc3c(=O)c4ccccc4[nH]c23)nc1-c1ccc(F)cc1 (field: CC50 at 72 h) = 58.2

* * *

Tested on: K562
Assay: Cytotoxicity against human K562 cells by MTT assay
Format: functional, cell-based
ENDPOINT LABEL: pIC50
Please treat pIC50 as minus the base-10 logarithm of the molar concentration.

response.value for Cc1cccc2c(=O)c3c(NCc4ccccc4)ccc(C(=O)NCCN(C)C)c3[nH]c12 (field: pIC50) = 6.34

* * *

Assay: Antiproliferative activity against human MCF7/DX cells after 72 hrs by MTT assay
Type: functional, cell-based
ENDPOINT LABEL: IC50
Note: state the figure and append the unit.

INPUT SMILES: COC(=O)c1c(C)nc(NNC(=O)c2cccc3c(=O)c4ccccc4[nH]c23)nc1-c1ccc(OC)c(OC)c1
IC50: 78 µM
--
INPUT SMILES: COC(=O)c1c(C)nc(NNC(=O)c2cccc3c(=O)c4ccccc4[nH]c23)nc1-c1ccc(F)cc1
IC50: 45 µM
--
INPUT SMILES: CCOC(=O)c1c(C)nc(NNC(=O)c2cccc3c(=O)c4ccccc4[nH]c23)nc1-c1ccc(OC)c(OC)c1
IC50: 30 µM

// next entry
response.value for COC(=O)c1c(C)nc(NNC(=O)c2cccc3c(=O)c4ccccc4[nH]c23)nc1-c1cccc(OC)c1 (field: IC50) = 78 µM

* * *

Catalogue of IC50 values
System: SW1573
Assay: Antiproliferative activity against human SW1573 cells after 72 hrs by MTT assay
Format: functional, cell-based
Conditions: SW1573, 72 h
Use µM as the unit, but write only the number.

Some entries whose results are on file:
INPUT SMILES: COC(=O)c1c(C)nc(NNC(=O)c2cccc3c(=O)c4ccccc4[nH]c23)nc1-c1ccc(F)cc1
UNIT NAME: µM
VAL: 75
--
INPUT SMILES: COC(=O)c1c(C)nc(NNC(=O)c2cccc3c(=O)c4ccccc4[nH]c23)nc1-c1ccc(OC)c(OC)c1
UNIT NAME: µM
VAL: 4

response.value for COC(=O)c1c(C)nc(NNC(=O)c2cccc3c(=O)c4ccccc4[nH]c23)nc1-c1cccc(OC)c1 (field: IC50) = 5

response.value for CCOC(=O)c1c(C)nc(NNC(=O)c2cccc3c(=O)c4ccccc4[nH]c23)nc1-c1ccc(OC)c(OC)c1 (field: IC50) = 45
